System: NCI-H460 lung
method_summary: NCI tumour cell line growth inhibition, 48 h
Reported values of TGI for individual entries

compound	TGI
CC(=O)OC1(C(C)=O)CC2(c3ccccc3)OC1(c1ccccc1)c1ccccc12 (configuration not stated)	> 100 µM
COc1ccc(Cl)cc1NC(=O)O/N=C(\Cl)C(C)C	37.6 µM
Nc1ncc(CN2CCCC2)c(-c2ccccc2O)n1	> 750 µM
C=C1C(C)C2C(Cc3ccccc3)NC(=O)C23C(OC(C)=O)C=CC(C)(O)C(=O)C(C)C/C=C/C3C1O (configuration not stated)	> 295 µM
COC(=O)C(=O)C(C(=O)C(=O)Nc1cc(C)ccc1C)c1nc2ccccc2[nH]c1=O (configuration not stated)	> 100 µM
CCCCCCNC(=O)CCN(C(=O)O)S(=O)(=O)c1ccc(NC(=O)c2ccccc2)cc1	> 62.2 µM
CC(C)=CC(=O)c1[nH]c2ccccc2c1CC(=O)NCCc1cnc[nH]1	> 100 µM
O=C1CCNC/C1=C\c1ccccc1	> 100 µM
NC1CC(=O)c2c(I)sc(I)c21 (configuration not stated)	66.8 µM
O=[N+]([O-])c1ccc(CSC2=C(c3ccc(Cl)cc3)S/C(=C3\SC(SCc4ccc([N+](=O)[O-])cc4)=C(c4ccc(Cl)cc4)S3)S2)cc1	> 100 µM
CN(N=O)c1ccc(/C=C/c2ccnc3ccccc23)cc1	> 100 µM
CC(C)C1OC(=O)C(Cc2ccccc2)N(C)C(=O)C(C(C)C)OC(=O)C(Cc2ccccc2)N(C)C(=O)C(C(C)C)OC(=O)C(Cc2ccccc2)N(C)C1=O (configuration not stated)	2.44 µM
CO[C@H]1C[C@H](O[C@H]2CC[C@@]3(C)[C@H](CC[C@@H]4[C@@H]3CC[C@]3(C)[C@@H](C5=CC(=O)OC5)CC[C@]43O)C2)O[C@H](C)[C@H]1O	0.0103 µM
COc1cc(C(=O)/C=C/c2c[nH]c3ccccc23)cc(OC)c1OC	2.17 µM
Cc1ccc([N+](=O)[O-])cc1S(=O)(=O)Nc1ccc(C2=NN(S(=O)(=O)c3cc([N+](=O)[O-])ccc3C)C(c3ccccc3O)C2)cc1 (configuration not stated)	> 100 µM
CC/C(=C/c1ccc(OC)cc1)[N+](=O)[O-]	4.47 µM
COc1ccc(C(CC(=O)c2cccs2)C(=O)c2ccc3c(c2)OCO3)cc1 (configuration not stated)	> 100 µM
